Experiment: Murine plasma pharmacokinetics assay
Assay type: in vivo, NIH-III nude mice
Details: female, NIH-III nude, mouse, plasma, ip, 80 mg/kg, 80 mg/kg intraperitoneal, plasma, model fit; read-out: Tmax
Procedure: Compound 204 was formulated in water for injection at 2 or 4 mg/ml to be administered by intraperitoneal injection at 0.02 ml/g body weight to achieve a 40 or 80 mg/kg dose. […] The resulting supernatant was diluted in 2 volumes of 0.01% formic acid in water and 10 uL injected onto the LC-MS/MS system using an established quantitative analysis method. […]
Assay metric: Tmax (h)
Report the value in h with no unit label.

Requested field: Tmax. Item: COc1cc(OC)c(Cl)c(N2Cc3cnc(Nc4ccccc4)nc3N(C3CCN(C(=O)/C=C/C[N+](C)(C)Cc4c([N+](=O)[O-])ncn4C)CC3)C2=O)c1Cl.[Br-]
2.58

----------
Test system: FGFR1 in H520 cells (phospho-ERK1/2)
Experiment: Drug washout Western blot assay, H520 cells
Format: cell-based
Conditions: H520; 2 hours exposure; tested at 100, 300 and 600 nM
Below, each entry is listed alongside its reported concentration required to suppress FGFR1 signalling through phospho-ERK1/2.
Report the value in nM with no unit label.

Requested field: concentration required to suppress FGFR1 signalling through phospho-ERK1/2. Item: CNc1ncc2c(n1)N([C@H]1CCN(C(=O)/C=C/C[N+](C)(C)Cc3c([N+](=O)[O-])ncn3C)C1)C(=O)N(c1c(Cl)c(OC)cc(OC)c1Cl)C2.[Br-]
300

Requested field: concentration required to suppress FGFR1 signalling through phospho-ERK1/2. Item: COc1cc(OC)c(Cl)c(N2Cc3cnc(NC(C)C)nc3N([C@H]3CCN(C(=O)/C=C/CN(C)C)C3)C2=O)c1Cl
300

----------
System: FGFR1-amplified H520 non-small cell lung cancer cells
Test: Cell proliferation assay (SRB)
Assay type: cell-based
Settings: Homo sapiens, NCI-H520, 168 h, read-out: Cellular Anti-proliferative IC50, H520
Assay metric: IC50 (nM)
Report the value in nM with no unit label.

Reference set (3 entries):
1) COc1cc(OC)c(Cl)c(N2Cc3cnc(Nc4ccc(F)cc4)nc3N(C3CCN(C(=O)/C=C/CN(C)C)CC3)C2=O)c1Cl
8.7
2) COc1cc(OC)c(Cl)c(N2Cc3cnc(NC4CCCCC4)nc3N([C@H]3CCN(C(=O)/C=C/CN(C)C)C3)C2=O)c1Cl
68
3) COc1cc(OC)c(Cl)c(N2Cc3cnc(Nc4ccccc4)nc3N([C@H]3CCN(C(=O)/C=C/CN(C)C)C3)C2=O)c1Cl
11

--- query ---
Provide the documented IC50 with FGFR1-amplified H520 non-small cell lung cancer cells as the system for COc1cc(OC)c(Cl)c(N2Cc3cnc(NC(C)C)nc3N([C@H]3CCN(C(=O)/C=C/CN(C)C)C3)C2=O)c1Cl
17

----------
Assay: Murine plasma pharmacokinetics assay
Assay type: in vivo, NIH-III nude mice
Conditions: female, NIH-III nude, mouse, plasma, ip, 80 mg/kg, 80 mg/kg intraperitoneal, plasma; read-out: Tmax-obs
Assay metric: Tmax (h)
Report the value in h with no unit label.

Requested field: Tmax. Item: COc1cc(OC)c(Cl)c(N2Cc3cnc(Nc4ccccc4)nc3N(C3CCN(C(=O)/C=C/C[N+](C)(C)Cc4c([N+](=O)[O-])ncn4C)CC3)C2=O)c1Cl.[Br-]
4
